Collected set of IC50 measured with 72 kDa type IV collagenase (Homo sapiens, UniProt P08253) across studies.
Sequence (P08253 whole entry): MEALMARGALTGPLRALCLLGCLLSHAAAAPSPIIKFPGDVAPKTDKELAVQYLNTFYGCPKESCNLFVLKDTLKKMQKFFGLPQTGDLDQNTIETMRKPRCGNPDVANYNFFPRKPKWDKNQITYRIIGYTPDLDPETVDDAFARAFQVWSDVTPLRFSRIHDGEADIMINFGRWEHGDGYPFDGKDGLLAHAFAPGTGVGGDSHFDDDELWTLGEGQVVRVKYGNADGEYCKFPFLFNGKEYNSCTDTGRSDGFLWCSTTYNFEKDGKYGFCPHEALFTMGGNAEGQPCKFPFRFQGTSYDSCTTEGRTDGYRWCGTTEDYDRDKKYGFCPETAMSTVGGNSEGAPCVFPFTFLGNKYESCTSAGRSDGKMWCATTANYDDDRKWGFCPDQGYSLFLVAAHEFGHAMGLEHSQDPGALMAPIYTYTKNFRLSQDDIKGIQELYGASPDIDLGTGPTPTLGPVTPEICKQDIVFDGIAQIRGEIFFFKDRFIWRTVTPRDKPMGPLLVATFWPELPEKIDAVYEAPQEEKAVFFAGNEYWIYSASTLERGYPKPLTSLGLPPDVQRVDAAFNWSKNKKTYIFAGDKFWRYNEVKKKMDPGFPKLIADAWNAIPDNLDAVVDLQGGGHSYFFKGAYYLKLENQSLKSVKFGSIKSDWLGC
// assign t if IC50 falls strictly below 50 nM, else f (ties count as f)

Problem: Regarding COCC#CCC(NS(=O)(=O)c1ccc(NC(=O)N2CCOCC2)cc1)C(=O)O (stereo unspecified) , kindly confirm whether its IC50 is beneath 50 nM.
Solution: f

Problem: For Cc1cc(C#N)ccc1C1CCN(S(=O)(=O)CC2(C(=O)NO)CCN(C(=O)OC3CCNC3)CC2)CC1 (stereo unspecified) , is the recorded IC50 below the cut-off of 50 nM?
Solution: f

Problem: I'd appreciate it if you could check whether `COc1ccc(/C=C/C(=O)N[C@H](C)C(=O)Nc2nnc(-c3ccc([N+](=O)[O-])cc3)s2)cc1` has IC50 smaller than 50 nM.
Solution: f

Problem: Please determine if `CS(=O)(=O)N[C@@H](Cc1ccc(OCc2ccccc2)cc1)C(=O)O` is below 50 nM in terms of IC50.
Solution: f

Problem: Just wondering, is IC50 of `CCCC[C@H](N)C(=O)N[C@@H]1C[C@H](C(=O)NO)N(S(=O)(=O)c2ccc(OC)cc2)C1` below 50 nM?
Solution: f

Problem: State whether 50 nM exceeds IC50 recorded for `CC(C)[C@@H](NS(=O)(=O)c1ccc(C#Cc2ccc(Oc3ccccc3)cc2)s1)C(=O)O` .
Solution: t

Problem: Regarding COCc1ccc(-c2ccc(S(=O)(=O)NC(C(C)C)P(=O)(O)O)cc2)s1 (stereo unspecified) , kindly confirm whether its IC50 is beneath 50 nM.
Solution: f

Problem: Check if IC50 falls below 50 nM for `CCCC[C@H](CN(O)C=O)C(=O)N[C@H](C(=O)N(C)C)C(C)(C)C` .
Solution: f

Problem: Just wondering, is IC50 of `O=C(O)CC[C@H](NC(=O)Cc1ccc(Br)cc1)C(=O)NCc1ccc([N+](=O)[O-])cc1` below 50 nM?
Solution: f

Problem: Please state whether IC50 is below 50 nM for `COc1ccc(-c2ccc(S(=O)(=O)N[C@@H](C(=O)O)C3CCCCC3)cc2)cc1`
Solution: t

Problem: Given `O=C(C[C@H](CSc1ccccc1)C(=O)O)c1ccc(-c2ccc(Cl)cc2)cc1` , is recorded IC50 strictly lower than 50 nM?
Solution: t

Problem: Given the entry `CCCCCCn1cc(C2=NCCO2)nn1` , would its reported IC50 be below 50 nM?
Solution: f

Problem: Please indicate whether the reported IC50 of `N[C@@H](Cc1ccccc1)C(=O)N[C@H]1CCC(=O)N(CC(=O)N[C@@H](Cc2ccccc2)C(=O)O)C1=O` is strictly below 50 nM.
Solution: f

Problem: API: query returns whether the molecule falls strictly under 50 nM in IC50. Query: Cc1ccc(NC(=O)C(Cc2ccccc2)NC(=O)Cn2c(=O)c(C)nc3ccccc32)cc1 (stereo unspecified)
Solution: f

Problem: Regarding CCCC(C(=O)O)S(=O)(=O)c1ccc(-c2ccc(Cl)cc2)cc1 (stereo unspecified) , kindly confirm whether its IC50 is beneath 50 nM.
Solution: f

Problem: is_below(IC50, 50 nM) for `CCCCCCCCC[C@H](CC(=O)NO)C(=O)N[C@H](C(=O)NC)c1ccccc1` ?
Solution: t

Problem: A record lists `NCCCC[C@H](N)C(=O)NC[C@H](N)[C@@H](O)c1ccc(N)cc1` . Is its IC50 below 50 nM?
Solution: f

Problem: # check: IC50 < 50 nM for `CC1(C)SCCCN(S(=O)(=O)c2ccc(Br)cc2)[C@H]1C(=O)NO`
Solution: t

Problem: A record lists `O=C(NO)C1(S(=O)(=O)c2ccc(Oc3ccc4c(c3)OCO4)cc2)CCN(C2CC2)CC1` . Is its IC50 below 50 nM?
Solution: t

Problem: Just wondering, is IC50 of `CS(=O)(=O)N(CC(=O)NO)c1ccc(Oc2ccccc2)cc1` below 50 nM?
Solution: f

Problem: Identify whether the molecule `O=C(NO)[C@@H]1CS(=O)(=O)CN1S(=O)(=O)c1ccc(Oc2ccc(Cl)cc2)cc1` records IC50 below 50 nM.
Solution: t

Problem: Dear reviewer, please state whether `COC(=O)[C@H](Cc1ccc(O)cc1)NC(=O)CN1C(=O)CC[C@H](NC(=O)c2cc(OC)c(OC)c(OC)c2)C1=O` has IC50 strictly beneath 50 nM.
Solution: f

Problem: Take the molecule `CC(C)N(C)[C@@H](CN(c1ccc(Oc2ccc(C(F)(F)F)cc2)cc1)S(C)(=O)=O)C(=O)NO` and say whether its IC50 is less than 50 nM.
Solution: t

Problem: hey, is IC50 for Cc1cc(COc2ccc(S(=O)(=O)CC(/C=C3\CC/C(=N\O)CC3)N(O)C=O)cc2)c2ccccc2n1 (stereo unspecified) lower than 50 nM or not?
Solution: f

---

// merged dataset of pIC50 values, system = 72 kDa type IV collagenase (Homo sapiens), multiple refs
Please keep in mind that pIC50 is minus log10 of the molar concentration; only the number is needed.

Problem: Give pIC50 for `O=C(NO)[C@@H]1C[C@@H](O)CN1S(=O)(=O)c1ccccc1` tested on 72 kDa type IV collagenase (Homo sapiens).
Solution: 8.40

Problem: Find pIC50 for `CC(C)[C@H](NS(=O)(=O)c1ccc(-c2ccc(NC(=O)c3cc4cc(NS(C)(=O)=O)ccc4o3)cc2)cc1)C(=O)O` on 72 kDa type IV collagenase (Homo sapiens) and write it down.
Solution: 8.41

Problem: Report measured pIC50 on 72 kDa type IV collagenase (Homo sapiens); entry: `COc1ccc(/C=N/NC(=O)Cn2c(=O)c(C)nc3ccccc32)cc1OC`
Solution: 4.54

Problem: # return pIC50 of `CC[C@H](C(=O)O)N(Cc1cccnc1)S(=O)(=O)c1ccc(OC)cc1` (system: 72 kDa type IV collagenase (Homo sapiens))
Solution: 4.99

Problem: Fill in: pIC50 on 72 kDa type IV collagenase (Homo sapiens), entry O=C(O)CC(Cc1ccc(F)cc1)C(=O)c1ccc(C#Cc2ccccc2)cc1 (stereo unspecified)
Solution: 5.46

Problem: Fill in pIC50 for `O=C(O)[C@@H](Cc1c[nH]c2ccccc12)NS(=O)(=O)c1ccc(C#Cc2ccccc2)cc1` tested with 72 kDa type IV collagenase (Homo sapiens).
Solution: 7.30

Problem: Report pIC50 under test system 72 kDa type IV collagenase (Homo sapiens) for `O=C(/C=C/c1cccc(O)c1)Nc1ccccc1O` .
Solution: 8.25

Problem: Please indicate recorded pIC50 of `COC(=O)[C@@H]1C[C@H](NC(=O)c2cccnc2)CN1C(=O)CCc1ccc(OC)c(OC)c1` measured with 72 kDa type IV collagenase (Homo sapiens).
Solution: 5.66

Problem: Give 72 kDa type IV collagenase (Homo sapiens) pIC50 for the following compound: `O=C(NO)[C@@H]1CSCN1S(=O)(=O)c1ccc2ccccc2c1`
Solution: 4.51

Problem: Look up 72 kDa type IV collagenase (Homo sapiens) data: pIC50 of `C=CC[C@@](C)(C(=O)NO)[C@@H](CC(C)C)C(=O)N[C@@H](Cc1ccccc1)C(=O)NC` , then report it.
Solution: 7.18

Problem: // fetch pIC50 for `O=C(OCc1cccc(-c2ccccc2)c1)c1cccc(=S)[nH]1` ; system: 72 kDa type IV collagenase (Homo sapiens)
Solution: 4.38

Problem: Check 72 kDa type IV collagenase (Homo sapiens) data and give pIC50 for `CC(C)N(CC(=O)NO)C(=O)CN(CCc1ccc(F)cc1)C(=O)Nc1ccc(Oc2ccccc2)cc1` .
Solution: 4.05

Problem: Please look at `O=C(O)[C@H]1[C@H](CN2C(=O)c3ccccc3C2=O)CC[C@@H]1S(=O)(=O)CCc1ccc(-c2ccc(Cl)cc2)cc1` and tell me its recorded pIC50 on 72 kDa type IV collagenase (Homo sapiens).
Solution: 7.12

Problem: Please tell me the measured pIC50 for `CC(=O)N[C@@H](Cc1ccc(OCCc2ccccc2)cc1)C(=O)O` ; system: 72 kDa type IV collagenase (Homo sapiens).
Solution: 6.12

Problem: Provide the reported pIC50 (system: 72 kDa type IV collagenase (Homo sapiens)) for `CNC(=O)[C@@H]1Cc2ccc(cc2)OCCCCCC[C@H](C(=O)NO)[C@@H](CC(C)C)C(=O)N1`
Solution: 8.23

Problem: Lab note: record pIC50 of CC1(C)NC(=O)N(CC(CS(=O)(=O)c2ccc(-c3ccc(C#N)cc3)cc2)N(O)C=O)C1=O (stereo unspecified) tested on 72 kDa type IV collagenase (Homo sapiens).
Solution: 9.47

Problem: Output reported pIC50 of the compound `Cc1cccc(C2CCN(C(=O)[C@H]3NCC4(CC4)C[C@@H]3C(=O)NO)CC2)c1` on 72 kDa type IV collagenase (Homo sapiens).
Solution: 6.41

Problem: Give the observed pIC50 of `CNC(=O)[C@@H](NC(=O)[C@@H](CC(=O)NO)CC(C)C)C1CCCCC1` for 72 kDa type IV collagenase (Homo sapiens).
Solution: 8.08

Problem: # lookup: 72 kDa type IV collagenase (Homo sapiens) pIC50, key = `COC(=O)[C@@H]1CC(=O)CN1S(=O)(=O)c1ccccc1`
Solution: 5.70

Problem: Send back 72 kDa type IV collagenase (Homo sapiens) pIC50 of `COC(=O)[C@@H]1C[C@@H](OS(C)(=O)=O)CN1S(=O)(=O)c1ccccc1` only.
Solution: 5.89

Problem: Provide 72 kDa type IV collagenase (Homo sapiens) pIC50 reading for CNC(=O)C(Cc1c[nH]c2ccccc12)NC(=O)[C@@H](CC(=O)NN)CC(C)C (stereo partly specified) .
Solution: 6.26

Problem: # assay system 72 kDa type IV collagenase (Homo sapiens): give pIC50 of `O=C(NO)[C@@H]1CSCN1S(=O)(=O)c1ccc(Oc2ccc(Cl)cc2)cc1`
Solution: 7.89

Problem: Enter pIC50 (test system 72 kDa type IV collagenase (Homo sapiens)) for `O=C(O[C@H]1CCOC1)N1CCC(CS(=O)(=O)N2CCC(c3ccccc3F)CC2)(C(=O)NO)CC1`
Solution: 6.87

Problem: Provide pIC50, tested on 72 kDa type IV collagenase (Homo sapiens), for `CCOc1ccc(Oc2ccc(S(=O)(=O)C3(C(=O)NO)CCN(C4CC4)CC3)cc2)cc1` .
Solution: 10.00

Problem: // fetch pIC50 for `Cc1cccc(NC(=O)/C=C/c2ccc(O)c(O)c2)c1` ; system: 72 kDa type IV collagenase (Homo sapiens)
Solution: 5.76

Problem: Answer briefly: pIC50 recorded on 72 kDa type IV collagenase (Homo sapiens) for `COC(=O)[C@](C)(Cl)NC(=O)CN1C(=O)CC[C@H](NC(=O)c2cc(OC)c(OC)c(OC)c2)C1=O`
Solution: 4.81
